# Tested on: human lymphoblastoid cell lines
# PROTOCOL TEXT: Gemcitabine and AraC cytotoxicity assay (MTS/PMS), Human Variation Panel
# Assay type: cell-based
# STATED CONDITIONS: 197 cell lines; mean±SD; 72 hours; read-out: Average unadjusted LC50
METRIC: CC50 (µM)

molecule="Nc1ccn([C@@H]2O[C@H](CO)[C@@H](O)[C@@H]2O)c(=O)n1 [AraC, cytosine arabinoside]" assay_system="human lymphoblastoid cell lines" metric=CC50 value=8.4

###

# PROTOCOL TEXT: in vitro
# Type: cell-based
# STATED CONDITIONS: human
METRIC: CC50 at 72 h (nM)

query_smiles=Nc1ccn([C@@H]2O[C@H](CO)[C@@H](O)C2(F)F)c(=O)n1 value=25.3
